The reported measurements were obtained from patent US20180057604A1.

This listing pairs binders with measured EC50, HTRF long substrate.
Biological target: BACE1 (HTRF long substrate and FRET short substrate assays of Example 9D)
Assay: cell-based or functional assay

- binder: "5643 (antibody, V domains shown) VH: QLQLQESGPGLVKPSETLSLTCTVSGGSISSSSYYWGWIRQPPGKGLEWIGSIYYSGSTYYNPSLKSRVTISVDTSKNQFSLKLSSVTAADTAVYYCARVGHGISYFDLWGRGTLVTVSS VL: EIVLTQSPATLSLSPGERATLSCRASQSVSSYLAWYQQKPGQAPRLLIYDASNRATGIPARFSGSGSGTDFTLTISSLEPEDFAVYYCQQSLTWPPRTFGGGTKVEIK"
  EC50, HTRF long substrate: "17.7 nM"
- binder: "5644 (antibody, V domains shown, anti-BACE1 IgG) VH: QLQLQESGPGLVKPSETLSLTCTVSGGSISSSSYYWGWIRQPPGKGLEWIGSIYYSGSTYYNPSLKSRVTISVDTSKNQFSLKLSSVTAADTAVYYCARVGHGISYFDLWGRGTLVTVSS VL: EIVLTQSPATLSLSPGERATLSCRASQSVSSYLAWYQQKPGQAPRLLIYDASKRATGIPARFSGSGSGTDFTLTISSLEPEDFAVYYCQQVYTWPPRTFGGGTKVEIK"
  EC50, HTRF long substrate: "8.75 nM"
- binder: "5543 (antibody, V domains shown) VH: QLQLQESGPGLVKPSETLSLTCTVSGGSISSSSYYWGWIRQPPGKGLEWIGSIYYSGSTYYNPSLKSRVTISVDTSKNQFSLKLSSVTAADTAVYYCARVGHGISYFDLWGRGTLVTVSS VL: EIVLTQSPATLSLSPGERATLSCRASQSVSSYLAWYQQKPGQAPRLLIYDASNRATGIPARFSGSGSGTDFTLTISSLEPEDFAVYYCQQAYVWPPRTFGGGTKVEIK"
  EC50, HTRF long substrate: "30 nM"
